FYI, the data here is from PubChem BioAssay.

# reported viability increase; entries follow
- TEST DESCRIPTION: doxorubicin toxicity protection in MRP-1 cells – H69AR cells, CellTiter-Glo, duplicate, MRP-1 activator project, pilot screen (AID 807);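 note: compound pretreatment 18-22 h then 72 h combined with doxorubicin; 0% = doxorubicin alone and 100% = vehicle without doxorubicin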
- MEASUREMENT CONDITIONS: H69AR viability with doxorubicin, CellTiter-Glo luminescence; at 10 µM; active compounds read high
MEASUREMENT TYPE: viability increase (%)

>>> result("O=C(Nc1nc2c(s1)CCCC2)C1COc2ccccc2O1 (stereo not drawn)")
0.74
>>> result("O=C(NCc1ccc(F)cc1)c1cc2ccccn2n1")
-0.54
>>> result("CCC(=O)Oc1ccc2c(C)cc(=O)oc2c1C")
-4.73
>>> result("CCN1CCN(C(=O)c2cc3c(-c4ccc(Cl)cc4)nn(C)c3s2)CC1")
-7.68
>>> result("O=P(O)(CCc1ccccc1)CN1CCCCC1")
-0.92
>>> result("CC(C)CCNC(=O)Cn1c(NCCC(C)C)nc2c1c(=O)n(C)c(=O)n2C")
-1.31
>>> result("CCN(CC)C1CCCCC1NS(=O)(=O)c1ccc(Cl)cc1 (stereo not drawn)")
-1.53
>>> result("COCCNC(=O)C(C)N(c1ccc(Oc2ccccc2)cc1)S(C)(=O)=O (stereo not drawn)")
-0.82
>>> result("CN1CCN(CCCNC(=O)Cn2ncc3c4ccccc4n(C)c3c2=O)CC1")
-1.44
>>> result("O=C(CSc1nnc(Cn2c(=O)sc3ccccc32)n1-c1ccccc1)NCC1CCCO1 (stereo not drawn)")
-2.08
>>> result("CCCSc1nnc(N2C(=O)CC(c3ccsc3)C3=C2CCCC3=O)s1 (stereo not drawn)")
-0.83
>>> result("COc1ccc(NC(=O)C2CCCN(S(=O)(=O)c3cccc4cccnc34)C2)cc1 (stereo not drawn)")
-0.46
>>> result("Cn1c(C(=O)NCCc2ccsc2)cc2c(=O)n(C)c3ccccc3c21")
-4.49
>>> result("CN(C)c1ccc(NC(=O)Cn2cc3c(n2)CCCC3)cc1")
-2.45
>>> result("COc1ccccc1S(=O)(=O)Cc1ccc(C(=O)N2CCCC2)o1")
-1.51
>>> result("Cn1c(=O)oc2cc(S(=O)(=O)N3CCCC(C(=O)NCc4cccs4)C3)ccc21 (stereo not drawn)")
-1.73
>>> result("CCc1cccc(NC(=O)CCc2nc(-c3cccs3)no2)c1")
-1.34
>>> result("CCCC(=O)Nc1nc2ccc(S(N)(=O)=O)cc2s1")
-1.78
>>> result("CCCCc1nc2ccccc2n2cc3c(=O)n(C)c(=O)n(C)c3c12")
-4.07
>>> result("COCc1cc(C)nc(Nc2ccc(C)cc2C)c1C#N")
-4.12
>>> result("CC1CCCN(S(=O)(=O)c2coc(C(N)=O)c2)C1 (stereo not drawn)")
-0.1
>>> result("CCOC(=O)N1CCN(C(=O)c2ccc(N3C(=O)c4ccccc4C3=O)cc2)CC1")
-2.58
>>> result("NC(=O)C1(N2CCCCC2)CCN(C(=O)c2ccccc2)CC1")
-1.09

###

Item-by-item account of inhibition
- TEST DESCRIPTION: yeast transport mutant growth inhibition pilot in 384-well plates, post-Golgi transport modulator project (AID 636)
- MEASUREMENT CONDITIONS: absorbance 615 nm, about 18 h, active compounds read high
Activity calls are given as the source filed them. Rule as the data show it: active = inhibition above about 31%; inactive = the rest.
MEASUREMENT TYPE: inhibition

>>> result("COc1ccc(S(=O)(=O)N(C)C2CCN(C)CC2)cc1")
"-4.8% (inactive)"
>>> result("Cc1ccc(N2CCN(S(=O)(=O)N(C)C)CC2)c(C)c1")
"1.73% (inactive)"
>>> result("CC1=C(C(N)=O)C(c2ccccn2)n2nc(-c3ccccc3Cl)nc2N1 (stereo unspecified)")
"-2% (inactive)"
>>> result("Oc1ccc(-c2n[nH]c(=S)n2Cc2ccccc2)cc1")
"5.45% (inactive)"
>>> result("CCCCC(NS(=O)(=O)c1ccc(OC)cc1)C(=O)O (stereo unspecified)")
"-0.39% (inactive)"
>>> result("CCCCN(CC)CCNC(=O)c1cc2c(C)nc3ccccc3c2o1")
"-5.73% (inactive)"
>>> result("Cn1cc(C2NC(=O)c3c(sc4c3CCCC4)N2)c2ccccc21 (stereo unspecified)")
"1.6% (inactive)"
>>> result("O=C1CCCC2=C1C(c1cccc(Br)c1)n1nc(-c3ccco3)nc1N2 (stereo unspecified)")
"-1.73% (inactive)"
>>> result("CCOC(=O)N1CCN(C(=O)CSc2nnc(-c3cccc(Cl)c3)o2)CC1")
"0.13% (inactive)"
>>> result("CCOC(=O)c1cc2c(=O)n3ccccc3nc2n(CCCOC)c1=NC(C)=O")
"-5.48% (inactive)"
>>> result("FC(F)(F)COc1nc(N2CCCCC2)nc(N2CCNCC2)n1")
"-4.86% (inactive)"
>>> result("O=C1C/C(=C/NCc2ccccc2)C(=O)N1")
"2.08% (inactive)"
>>> result("CCCNC(=O)C1CCN(S(=O)(=O)c2ccc3nc4c(c(C(=O)O)c3c2)CCCCC4)CC1")
"-1.87% (inactive)"
>>> result("CC(C)(C)SCCNC(=O)COc1ccc(Cl)cc1")
"-6.89% (inactive)"
>>> result("CCN1CCN(C(=O)c2oc(=O)c3ccccc3c2-c2ccc(C)cc2)CC1")
"-3.07% (inactive)"
>>> result("CCOC(=O)c1sc2nc(NC(=O)C3CCCCC3)sc2c1C")
"-0.4% (inactive)"
>>> result("Cc1ccc(N=Cc2ccc(O)cc2O)cc1F")
"-2.34% (inactive)"
>>> result("COc1cccc(-c2nc(CS(=O)(=O)CC(=O)N3CCc4ccccc4C3)c(C)o2)c1")
"-0.67% (inactive)"
>>> result("CC(=O)Nc1cccc(NC(=O)c2ccco2)c1")
"-2.21% (inactive)"
>>> result("Cc1ccc(C(=O)Nc2ccc(Cl)cn2)cc1S(=O)(=O)N1CCOCC1")
"0.39% (inactive)"
>>> result("N#Cc1cnc2sc3ccccc3n2c1=N")
"-3.07% (inactive)"
>>> result("COc1ccc(-c2nn(-c3ccccc3)cc2/C=N/n2cnnc2)cc1OC")
"-6.84% (inactive)"
>>> result("CC(C(=O)N1CC2(C)CC1CC(C)(C)C2)N1C(=O)c2ccccc2C1=O (stereo unspecified)")
"-7.07% (inactive)"
>>> result("CCn1cc(SCC(=O)NCC2CCCO2)c2ccccc21 (stereo unspecified)")
"-4.67% (inactive)"
>>> result("COc1ccc2c(c1OC)C(=O)OC2CC(=O)c1ccc(O)cc1 (stereo unspecified)")
"1.3% (inactive)"
>>> result("COc1ccc(N(CC(=O)Nc2cc(C)ccc2C)S(=O)(=O)c2c(C)nn(C)c2C)cc1")
"-0.38% (inactive)"
>>> result("CN(C)c1cc(NC(=O)CN2CCOCC2)c2ccccc2n1")
"-5.47% (inactive)"
>>> result("COc1ccc(S(=O)(=O)Nc2ccc(F)c(Cl)c2)cc1OC")
"-2.21% (inactive)"
>>> result("Cc1cccc(CN2CCC(CNC(=O)C3CCCN(S(=O)(=O)c4cnc[nH]4)C3)CC2)c1 (stereo unspecified)")
"-5.2% (inactive)"
>>> result("Cc1ccc2c(c1)C1CCCC3C1N2CC(=O)N3Cc1ccccc1 (stereo unspecified)")
"0.27% (inactive)"
>>> result("OC1(c2cccc(C(F)(F)F)c2)CCN(c2ccc(-c3ccccc3)nn2)CC1")
"0.27% (inactive)"
>>> result("Cc1ccc2c(c1)-c1c(cnn1CC(=O)NC(C)CCc1ccco1)CO2 (stereo unspecified)")
"-4.36% (inactive)"
>>> result("O=C(Nc1nc(-c2ccncc2)cs1)C1COc2ccccc2O1 (stereo unspecified)")
"0.51% (inactive)"
>>> result("CCCCN(C)C(=O)c1cn(C)c2ccc(S(=O)(=O)N(C)C)cc2c1=O")
"0.13% (inactive)"
>>> result("CCc1cccc(NC(=O)CCc2nc(-c3cccs3)no2)c1")
"-3.47% (inactive)"
>>> result("CCSc1oc(-c2ccco2)nc1S(=O)(=O)c1ccccc1")
"-5.95% (inactive)"
>>> result("CC(Sc1n[nH]c(=O)[nH]c1=O)C(=O)OCc1ccccc1 (stereo unspecified)")
"-5.6% (inactive)"
>>> result("CCOc1ccc(N2C(=O)CC(N3CC(C)OC(C)C3)C2=O)cc1 (stereo unspecified)")
"-3.72% (inactive)"
>>> result("CCOC(=O)N1CCC(NC(=O)c2ccc(CS(=O)(=O)c3c(Cl)cccc3Cl)o2)CC1")
"2.31% (inactive)"
>>> result("CC(OC(=O)C1CC=CCC1C(N)=O)C(Cl)=C(Cl)Cl (stereo unspecified)")
"6.1% (inactive)"
>>> result("COc1cccc(C2CC(c3ccc(C)cc3)Nc3nc(N)nn32)c1 (stereo unspecified)")
"-0.4% (inactive)"
>>> result("CC(=O)NCCc1ccc(S(=O)(=O)NCc2ccc3c(c2)OCO3)cc1")
"-8.27% (inactive)"
>>> result("Cc1c(Cl)cccc1NC(=O)CCN1CCCCC1")
"-2.8% (inactive)"
>>> result("CC(C)C(NC(=O)c1ccc(S(=O)(=O)N2CCOCC2)cc1)c1nc2ccccc2[nH]1 (stereo unspecified)")
"1.95% (inactive)"
>>> result("O=C1CCCc2c1cc(C(=O)NCCCN1CCOCC1)c(=O)n2-c1ccc(Cl)cc1")
"-5.07% (inactive)"
>>> result("COc1ccccc1C(=O)NCCc1nc2ccccc2n1C")
"-6.76% (inactive)"
